Target: Inadl_5, Q8NI35
Sequence (Q8NI35 673-780): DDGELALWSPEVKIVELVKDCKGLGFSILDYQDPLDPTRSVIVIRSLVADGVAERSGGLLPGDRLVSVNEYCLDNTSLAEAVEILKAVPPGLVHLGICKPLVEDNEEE
Assay: holdup assay
Set-up: key: below the threshold = too weak to quantify, mostly under pKd 3.1 to 4
Details: plain residues with an end cap or a label only (N-terminal biotin on a linker: ahx)
endpoint label: pKd

- binder: "GYDWGPATDL [TJP3, O95049]"
  endpoint label: "pKd"
  recorded measurement: "below the threshold"
- binder: "RAVEEEESRF [PSCDBP, O60759]"
  endpoint label: "pKd"
  recorded measurement: "below the threshold"
- binder: "LSDPSVSTVV [GRIN1, Q05586;Q05586-2]"
  endpoint label: "pKd"
  recorded measurement: "below the threshold"
- binder: "NRKREIFSNF [NHERF2, Q15599]"
  endpoint label: "pKd"
  recorded measurement: "below the threshold"
- binder: "HNAFLSVTTV [PDZRN4, Q6ZMN7]"
  endpoint label: "pKd"
  recorded measurement: "below the threshold"
- binder: "SDSSGQEYSL [KCTD3, Q9Y597]"
  endpoint label: "pKd"
  recorded measurement: "below the threshold"
- binder: "TVICWPGSLV [LNX2, Q8N448]"
  endpoint label: "pKd"
  recorded measurement: 3.51
- binder: "PSASCAVTAA [PDLIM4, P50479;P50479-2]"
  endpoint label: "pKd"
  recorded measurement: "below the threshold"
- binder: "ESLLLGPSNF [SHROOM4, Q9ULL8]"
  endpoint label: "pKd"
  recorded measurement: "below the threshold"

Prompt: Which pKd is reported for this binder? RRRKRKRTYL [HPV49-L2, P36762]
Completion: 4.05

Provenance of the data: paper PMC9482650
